Ref: ChEMBL document CHEMBL1201862

Test system: NCI/ADR-RES
Assay: NCI tumour cell line growth inhibition, 48 h
Active and inactive are the calls of the source. Rule as the data show it: active = GI50 up to about 1.1 µM and inactive = higher. Starred links: 1 amine or outer side, 2 acyl side, 3 side chain; linkers in the order of their positions; H or OH if unused. Positions of bridges follow the written chain, without caps; N, C: chain ends. Non-standard residues stand in square brackets, D forms with d. Residues, ends and D or L forms follow the SMILES beside them. ξ: configuration not given here. X11 = CCC(C)C(N[*:1])C(O)CC(=O)O[C@H](C(=O)C(C)C(=O)[*:2])C(C)C; X10 = O=C([C@@H]1CC(O)CN1[*:1])[*:2]; NMeY = CN[C@@H](Cc1ccc(O)cc1)C(=O)O; ξNMeL = CNC(CC(C)C)C(=O)O; ξT = CC(O)C(N)C(=O)O
Pick one and only one: active, inactive

Please review the entries below; each comes with its answer.
compound	qualitative label
CC(C)(/N=N/C(C)(C)C(=O)NCCO)C(=O)NCCO	inactive
Cc1ccc2c(=O)c(C(=O)Nn3c(C)csc3=S)c[nH]c2n1	inactive
CCC(C)C1NC(=O)C(NC(=O)C(CC(C)C)N(C)C(=O)[C@@H]2CC(O)CN2)C(C)OC(=O)[C@H](Cc2ccc(OC)cc2)N(C)C(=O)[C@@H]2CCCN2C(=O)[C@H](CC(C)C)NC(=O)C(C)C(=O)[C@H](C(C)C)OC(=O)CC1O (some centres undefined) (H-[X10][ξNMeL][ξT][X11]LP[NMeY](Me); ester 3-C)	inactive

Could you please tell me the result logged for C=CC(=O)N1C/C(=C\c2ccc([N+](=O)[O-])cc2)C(=O)/C(=C/c2ccc([N+](=O)[O-])cc2)C1 in this assay?
active

Could you please tell me the result logged for Cc1c2cc[n+](C)cc2c(C)c2c1[nH]c1ccc(Cl)cc12 in this assay?
inactive

Could you please tell me the result logged for CCOC(=O)/C=C(/C(=O)OCC)n1ccc(=O)n(CC(=O)OCC)c1=O in this assay?
inactive

Could you please tell me the result logged for O=c1[nH]c2cc(C(F)(F)F)ccc2nc1C(F)(F)F in this assay?
inactive

Could you please tell me the result logged for Oc1ccccc1C1C=C(c2ccccc2)NC(N2CCCCC2)=C1c1nc2ccccc2[nH]1 (centres undefined) in this assay?
inactive

Could you please tell me the result logged for CC(=O)Oc1ccc2c(c1)CC[C@@H]1C2[C@@H](O[N+](=O)[O-])C[C@@]2(C)C1CC[C@@H]2O (some centres undefined) in this assay?
inactive

Could you please tell me the result logged for CC1=C2C(=C[C@@](C)(CO)[C@@H]2O)C(=O)[C@](C)(O)C12CC2 in this assay?
active

Could you please tell me the result logged for O=C(O)c1ccccc1-c1ccccc1C(=O)Nc1ccc2c(c1)Cc1cc(F)ccc1-2 in this assay?
inactive

Could you please tell me the result logged for CCOC(=O)/C=C(\C(=O)OCC)n1cc(C)c(=O)n(Cc2cnnn2CCCCOC(C)=O)c1=O in this assay?
inactive
